system: CP201; experiment: qHTS profiling for inhibitors of Plasmodium falciparum proliferation (AID 504749); further: nearly all actives have a fitted effect of over 60% in size; settings: P. falciparum in erythrocytes, SYBR Green DNA, 72 h; series mostly up to 28.7 µM
Results filed as inconclusive are left out. The source made the active and inactive calls. The call rests on the fitted dose curve; in most records, active means well fitted inhibition curve with a large enough effect; inconclusive means small, poorly fitted or top-dose-only effect; inactive means flat fitted curve, though single readings scatter.
Outcome codes: active, inactive

1. O[C@@H]([C@H](O)[C@H](O)CBr)[C@H](O)CBr :: inactive
2. O=C(O)COc1ccccc1/C=N/NC(=O)c1ccncc1 :: inactive
3. CC(C)=CCC/C(C)=C/C=C/C(C)=C/C=C/C(C)=C/C=C/C=C(C)/C=C/C=C(C)/C=C/C=C(\C)CCC=C(C)C :: inactive
4. O=C1c2ccccc2CN2C(=O)c3ccccc3CN12 :: inactive
5. CC(C)[C@H](N)C(=O)OCC(CO)OCn1cnc2c(=O)[nH]c(N)nc21 (some centres undefined) :: inactive
6. Cc1cc(C)c(NC(=O)C[C@H](CC(=O)O)c2cccc3ccccc23)c(C(=O)N2CCC3(CCCC3)CC2)c1 :: inactive
7. CC(=O)Oc1cccc(C(=O)O)c1OC(C)=O :: inactive
8. CN1C(=O)C[C@@H](C(=O)N[C@@H](Cc2cnc[nH]2)C(=O)N2CCC[C@H]2C(N)=O)NC1=O :: inactive
9. NCC(O)CC(=O)O (centres undefined) :: inactive
10. CC1(C)S[C@@H]2[C@H](NC(=O)C3(N)CCCCC3)C(=O)N2[C@H]1C(=O)O :: inactive
11. C#C[C@]1(O)CC[C@@H]2[C@H]3CCC4=CC(=O)CC[C@H]4[C@H]3C(=C)C[C@@]21CC :: active
12. C(=C\c1ccncc1)/c1ccccc1 :: inactive
13. CCc1ncnc2cc(OC)c(OC)cc12 :: inactive
14. NC(=O)[C@@H]1CCCN1C(=O)[C@H](Cc1cnc[nH]1)NC(=O)[C@@H]1CCC(=O)N1 :: inactive
15. O=C(NNCS(=O)(=O)O)c1ccncc1 :: inactive
16. CCN(CC)CCOc1ccc2nc(N(C)C)sc2c1 :: inactive
17. CN=C1C=CC(=C(c2ccc(N(C)C)cc2)c2ccc(N(C)C)cc2)C=C1 :: active
18. NCCN :: inactive
19. O=C(CCCN1CCN2CCCC2C1)c1ccc(F)cc1 (centres undefined) :: inactive
20. c1ccc2c(c1)Sc1ccccc1N2CCN1CCCC1 :: active
21. Cc1ncc[nH]1 :: inactive
22. F[Si-2](F)(F)(F)(F)F :: inactive
23. Cn1c(=O)c2c(ncn2CCOC(=O)C(C)(C)Oc2ccc(Cl)cc2)n(C)c1=O :: inactive
24. O=C1c2ccccc2C(=O)C1c1ccc(F)cc1 :: inactive

* * *

System: 7G8
Experiment: qHTS profiling for inhibitors of Plasmodium falciparum proliferation (AID 504749); further: nearly all actives have a fitted effect of over 60% in size
Conditions: P. falciparum in erythrocytes, SYBR Green DNA, 72 h; series mostly up to 28.7 µM
Method: NIH National Institute of Allergy and Infectious Diseases [NIAID] NIH Chemical Genomics Center [NCGC] […] Because mature erythrocytes lack DNA, only Plasmodium-derived DNA is detected. NCGC Assay Protocol Summary: The SYBR Green viability assay was adapted from a method described previously (Plouffe et al., 2008). […] The following morning, fluorescence intensity at 485(14) nm excitation and 535(25) nm emission wavelengths was measured on an EnVision (Perkin Elmer) plate reader. […]
Records with an inconclusive call do not appear. Activity calls are given as the source filed them. The call rests on the fitted dose curve; in most records, active means well fitted inhibition curve with a large enough effect; inconclusive means small, poorly fitted or top-dose-only effect; inactive means flat fitted curve, though single readings scatter.
Outcome codes: T (active), F (inactive)

1) CC(C)NCC(O)COc1ccccc1-n1cccc1 (stereo not drawn) :: T
2) O=C(NCCNCC(O)COc1ccc(O)cc1)N1CCOCC1 (stereo not drawn) :: F
3) COc1ccc2c(c1)OC(C)(C)C(c1ccccc1)C2c1ccc(OCCN2CCCC2)cc1 (stereo not drawn) :: T
4) OCCOCCOCCO :: F
5) N=C(N)n1cccn1 :: F
6) CCCCC(CC)COS(=O)(=O)O (stereo not drawn) :: F
7) CC1=C(/C=C/C(C)=C/C=C/C(C)=C/C(=O)Oc2c(C)c(C)c3c(c2C)CC[C@@](C)(CCC[C@H](C)CCC[C@H](C)CCCC(C)C)O3)C(C)(C)CCC1 :: F
8) O=C1N=C2SCCN2C(=O)C1Cc1ccc(Cl)cc1 (stereo not drawn) :: F
9) CCCCCCOC(=O)c1cccnc1 :: F
10) O=P(O)(O)OP(=O)(O)OP(=O)(O)O :: F
11) CC12CCC(C1)C(C)(C)C2=O (stereo not drawn) :: F
12) COc1ccc(/C=C/C(=O)O)cc1 :: F
13) FC(F)OC(Cl)C(F)(F)F (stereo not drawn) :: F
14) FC(F)(F)C(F)(F)C(F)(F)C(F)(F)C(F)(F)F :: F
15) CC(=O)Oc1cc(C(F)(F)F)ccc1C(=O)O :: F
16) Cc1nc(NS(=O)(=O)c2ccc(N)cc2)nc(C)c1Br :: F
17) [O-][N+](=Nc1ccccc1)c1ccccc1 :: F
18) CCCCCCCCCCCCCC(=O)OCC(COP(=O)([O-])OCC[N+](C)(C)C)OC(=O)CCCCCCCCCCCCC (stereo not drawn) :: F
19) CC[C@H]1OC(=O)[C@H](C)[C@@H](O[C@H]2C[C@@](C)(OC)[C@@H](O)[C@H](C)O2)C(C)[C@@H](O[C@@H]2O[C@H](C)C[C@H](N(C)C)[C@@H]2O)[C@](C)(OC)C[C@@H](C)C(=O)[C@H](C)[C@@H](O)[C@]1(C)O (stereo partly drawn) :: F
20) O=P(O)(O)OC[C@H](O)CO :: F
21) CN1c2c(nc(N)[nH]c2=O)NCC1CNc1ccc(C(=O)NC(CCC(=O)O)C(=O)O)cc1 (stereo not drawn) :: F
22) CCCCCCCCCCCCCCCCCC[N+](C)(C)CCC[Si](OC)(OC)OC :: F
23) C[C@H](CCC(=O)O)[C@H]1CC[C@H]2[C@@H]3CC[C@@H]4C[C@H](O)CC[C@]4(C)[C@H]3C[C@H](O)[C@]12C :: F

The values you see were collected from PubChem BioAssay (NCATS).
